- System: MDR1
- TEST NAME: in vitro
- TEST CONTEXT: dog, MDCK-MDR1, pH 7.4
Overview of reported efflux ratio at 120 min, 5 μM across a group of compounds:
QUANTITY NAME: efflux ratio at 120 min, 5 μM

COMPOUND | READING
CN(C)C(=O)c1cc(O)c(-c2ccc(N(C)[C@@H]3C[C@H]4CC[C@@H]([C@@H]3F)N4C)nn2)cc1F (single isomer, unassigned) [Compound 104A] | 35
CCc1cn(-c2ccc(-c3ccc(N(C)[C@H]4C[C@@H]5CC(F)(F)[C@H](C4)N5)nn3)c(O)c2)cn1 [Compound 18B] | 4
CN(c1ccc(-c2cc3occc(=O)c3cc2O)nn1)[C@@H]1C[C@H]2CC[C@@H]([C@@H]1F)N2C (single isomer, unassigned) [Compound 94A] | 7
CNC(=O)c1cc(O)c(-c2ccc(N(C)[C@@H]3C[C@H]4CC[C@@H]([C@@H]3F)N4C)nn2)cc1F (single isomer, unassigned) [Compound 96A] | 18
CN(c1ccc(-c2ccc(C(F)F)cc2O)nn1)[C@@H]1C[C@H]2CC[C@H](N2)[C@@H]1F (single isomer, unassigned) [Compound 120A] | 8
Cc1nc2cc(O)c(-c3ccc(N(C)[C@@H]4C[C@H]5CC[C@H](N5)C4F)nn3)cc2o1 (stereo in doubt) [Compound 40A] | 16
CN(C)C(=O)c1cc2cc(O)c(-c3ccc(N(C4CC4)[C@@H]4C[C@H]5CC[C@H](N5)[C@@H]4F)nn3)cc2o1 [Compound 86A] | 60
CC(=O)Nc1ccc(-c2ccc(N(C)[C@H]3C[C@@H]4CC[C@@H](N4)[C@H]3F)nn2)c(O)c1 (single isomer, unassigned) [Compound 32B] | 78
CN(c1ccc(-c2cc3cccnc3cc2O)nn1)[C@H]1C[C@@H]2CC(F)(F)[C@H](C1)N2 [Compound 45B] | 4
CC(=O)Nc1ccc(-c2ccc(N(C)[C@@H]3C[C@H]4CC[C@H](N4)[C@@H]3F)nn2)c(O)c1 (single isomer, unassigned) [Compound 32A] | 59
CN(c1ccc(-c2ccc(Oc3cnn(C)c3)cc2O)nn1)[C@H]1C[C@@H]2CC[C@@H](N2)[C@H]1F (single isomer, unassigned) [Compound 91B] | 19
CN1[C@H]2CC[C@@H]1[C@@H](F)[C@@H](N(c1ccc(-c3cc4ncn(CC(F)(F)F)c(=O)c4cc3O)nn1)C1CC1)C2 (single isomer, unassigned) [Compound 111B] | 54
CN(c1ccc(-c2cn3c(=O)ccnc3cc2O)nn1)[C@@H]1C[C@H]2CC[C@H](N2)[C@@H]1F (single isomer, unassigned) [Compound 82A] | 40
Cc1cc(=O)c2cc(O)c(-c3ccc(N(C)[C@@H]4C[C@H]5CC[C@@H]([C@@H]4F)N5C)nn3)cc2o1 [Compound 99A] | 18
CN1[C@H]2CC[C@@H]1[C@@H](F)[C@@H](N(c1ccc(-c3cc4oc(C(=O)N5CCC5)cc4cc3O)nn1)C1CC1)C2 (single isomer, unassigned) [Compound 92B] | 45
CN(c1ccc(-c2cc3ccn(C)c(=O)c3s2)nn1)[C@H]1C[C@@H]2CC[C@@H](N2)[C@H]1F (single isomer, unassigned) [Compound 67B] | 86

---

- Test system: MDR1 (P-gp)
- TEST NAME: Blood-brain-barrier (BBB) penetration potential via MDCK-MDR1 permeability assay
- TEST CONTEXT: dog, MDCK-MDR1, pH 7.4, MDCK-MDR1: Papp A-B, A-B direction
QUANTITY NAME: Papp A→B at 120 min, 5 μM (×10⁻⁶ cm/s)

COMPOUND | READING
COc1cnc(-c2ccc(-c3ccc(N(C)[C@H]4C[C@@H]5CCC[C@@H](N5)[C@H]4F)nn3)c(O)c2)cn1 [Compound 29B] | 1.54
CN(c1ccc(-c2cc3cncnc3cc2O)nn1)[C@H]1C[C@@H]2CC[C@@H](N2)[C@H]1F [Compound 75B] | 2.44
Cc1cnc(-c2ccc(-c3ccc(N(C)[C@H]4C[C@@H]5CCC[C@@H](N5)[C@H]4F)nn3)c(O)c2)o1 [Compound 16B] | 1.16
Cc1cc(=O)c2cc(O)c(-c3ccc(N(C)[C@H]4C[C@@H]5CC[C@@H](N5)[C@H]4F)nn3)cc2o1 [Compound 49B] | 0.86
CN(c1ccc(-c2cc3nccnc3cc2O)nn1)[C@@H]1C[C@H]2CC[C@H](N2)[C@@H]1F [Compound 88A] | 4.84
CN(c1ccc(-c2cc3ccn(C)c(=O)c3cc2O)nn1)[C@H]1C[C@@H]2CC[C@@H](N2)[C@H]1F [Compound 84B] | 1.06
CN(c1ccc(-c2cc3c(F)cn(C)c(=O)c3cc2O)nn1)[C@@H]1C[C@H]2CC[C@H](N2)[C@@H]1F [Compound 54A] | 3.54
CN(c1ccc(-c2ccc(-c3cnn(C(F)F)c3)cc2O)nn1)[C@H]1C[C@@H]2CCC[C@@H](N2)[C@H]1F [Compound 21B] | 1.73
CN(c1ccc(-c2ccc(C#N)cc2O)nn1)[C@@H]1C[C@H]2CC[C@H](N2)[C@@H]1F [Compound 38A] | 13
CN(c1ccc(-c2cc3cnn(C)c3cc2O)nn1)[C@@H]1C[C@H]2CC[C@H](N2)[C@@H]1F [Compound 76A] | 5.55
CN(c1ccc(-c2ccc(-c3cnc(C#N)cn3)cc2O)nn1)[C@@H]1C[C@H]2CCC[C@H](N2)[C@@H]1F [Compound 28A] | 1.41
CN(c1ccc(-c2cc3cccnc3cc2O)nn1)[C@@H]1C[C@H]2CC(F)(F)[C@@H](C1)N2 [Compound 45A] | 9.45
CCN(c1ccc(-c2ccc(-c3cn[nH]c3)cc2O)nn1)[C@@H]1C[C@H]2CC[C@H](N2)[C@@H]1F [Compound 12A] | 0.89
CN(c1ccc(-c2cc(F)c(-n3ccnn3)cc2O)nn1)[C@@H]1C[C@H]2CC[C@H](N2)[C@@H]1F [Compound 52A] | 6.63
CN(C)C(=O)c1cc2cc(O)c(-c3ccc(N(C)[C@@H]4C[C@H]5CC[C@H](N5)[C@@H]4F)nn3)cc2o1 | 0.76
Cc1cnc(-c2ccc(-c3ccc(N(C)[C@@H]4C[C@H]5CCC[C@H](N5)[C@@H]4F)nn3)c(O)c2)cn1 [Compound 26A] | 2.09
CCc1cn(-c2ccc(-c3ccc(N(C)[C@@H]4C[C@H]5CC(F)(F)[C@@H](C4)N5)nn3)c(O)c2)cn1 [Compound 18A] | 7
CN(c1ccc(-c2ccc(-c3cnn(C)c3)cc2O)nn1)C1CC2COCC(N2)C1F (single isomer, unassigned) [Compound 80A] | 4.93
CN(c1ccc(-c2ccc(-n3cnc(C#N)c3)cc2O)nn1)[C@H]1C[C@@H]2CCC[C@@H](N2)[C@H]1F [Compound 63B] | 2.31
CN(c1ccc(-c2cc(F)c(-c3ccoc(=O)c3)cc2O)nn1)[C@H]1C[C@@H]2CC[C@@H](N2)[C@H]1F [Compound 17B] | 1.91
CN(c1ccc(-c2cc(F)c(-c3ccn(C)c(=O)c3)cc2O)nn1)[C@H]1C[C@@H]2CC(F)(F)[C@H](C1)N2 [Compound 22B] | 2.83
CN(c1ccc(-c2ccc(-c3ccn(C)n3)cc2O)nn1)[C@H]1C[C@@H]2CC[C@@H](N2)[C@H]1F (single isomer, unassigned) [Compound 36B] | 5.87
CN(c1ccc(-c2ccc(C3=CCCC3)cc2O)nn1)[C@H]1C[C@@H]2CC[C@@H](N2)[C@H]1F [Compound 34B] | 1.02

---

Recorded efflux ratio at 120 min, 5 μM, one value per entry.
- System: MDR1
- TEST NAME: Blood-brain-barrier (BBB) penetration potential via MDCK-MDR1 permeability assay
- TEST CONTEXT: dog, MDCK-MDR1, pH 7.4, MDCK-MDR1: Efflux, efflux ratio

MOLECULE | efflux ratio at 120 min, 5 μM
CN(C)C(=O)c1cc2cc(O)c(-c3ccc(N(C4CC4)[C@H]4C[C@@H]5CC[C@@H](N5)[C@H]4F)nn3)cc2o1 [Compound 86B] | 66
CN(c1ccc(-c2ccc(-n3cnc(Cl)c3)cc2O)nn1)[C@H]1C[C@@H]2CC(F)(F)[C@H](C1)N2 [Compound 37B] | 2
CN(c1ccc(-c2ccc(-n3ccnn3)cc2O)nn1)[C@@H]1C[C@H]2CC[C@H](N2)[C@@H]1F [Compound 61A] | 14

---

- System: MDR1-MDCK cell monolayers
- TEST NAME: Blood-brain-barrier (BBB) penetration potential via MDCK-MDR1 permeability assay
- TEST CONTEXT: B-A
Listing of recorded MDCK-MDR1: % Recov B-A by entry.
QUANTITY NAME: MDCK-MDR1: % Recov B-A (%)

COMPOUND | DISPLAY UNIT | READING
CN(c1ccc(-c2cc3c(=O)n(C)ccc3cc2O)nn1)[C@H]1C[C@@H]2CC[C@H]([C@H]1F)N2C [Compound 98B] | % | 87
CN(c1ccc(-c2cc3ccncc3cc2O)nn1)[C@@H]1C[C@H]2CC(F)(F)[C@@H](C1)N2 [Compound 125A] | % | 87
Cc1cc(=O)c2cc(-c3ccc(N(C)[C@@H]4C[C@H]5CC[C@@H]([C@@H]4F)N5C)nn3)c(O)cc2o1 [Compound 100A] | % | 102
CN(c1ccc(-c2cc3cnccc3cc2O)nn1)[C@@H]1C[C@H]2CC(F)(F)[C@@H](C1)N2 [Compound 126A] | % | 92
Cc1nc2cc(O)c(-c3ccc(N(C)[C@H]4C[C@@H]5CC[C@@H](N5)[C@H]4F)nn3)cc2s1 [Compound 116B] | % | 80
CN(c1ccc(-c2cc3c(=O)n(C)ccc3cc2O)nn1)[C@@H]1C[C@H]2CC[C@@H]([C@@H]1F)N2C [Compound 98A] | % | 105

# credit: patent US12509460B2
